- system_tested: ScSho1
- assay_details: SPOT peptide array binding signal intensity (averaged, normalized) (arbitrary units (background-subtracted, floor 0; scale differs between SH3 domains)); higher = stronger binding of the SH3 domain to the peptide
assay_metric: SPOT peptide array binding signal intensity

1) LRWRHKFFLPAIAAI: 759
2) STKKPRPPVKSKPKH: 269
3) PPLPRAPPVPPATFE: 81
4) KIRRSSLMIPNPQQF: 304
5) DGNEEKPLLPTRPNK: ≤ 0
6) KTITLEVESSDTIDN: ≤ 0
7) TEVPIPRRPPPPQAA: ≤ 0
